Value source: patent US20260365653A1

Target: mutEGFR (D770_N771insNPG, T790) (Homo sapiens, UniProt P00533, INS770NPG/T790M)
Construct: exact insNPG construct not described; in-house EGFR proteins were N-terminal GST fusions from baculovirus/insect cells (borders R669-A1210 given only for WT, insSVD, insASV)
Sequence (P00533 with tags, fused parts or gaps INS770NPG/T790M limits assumed): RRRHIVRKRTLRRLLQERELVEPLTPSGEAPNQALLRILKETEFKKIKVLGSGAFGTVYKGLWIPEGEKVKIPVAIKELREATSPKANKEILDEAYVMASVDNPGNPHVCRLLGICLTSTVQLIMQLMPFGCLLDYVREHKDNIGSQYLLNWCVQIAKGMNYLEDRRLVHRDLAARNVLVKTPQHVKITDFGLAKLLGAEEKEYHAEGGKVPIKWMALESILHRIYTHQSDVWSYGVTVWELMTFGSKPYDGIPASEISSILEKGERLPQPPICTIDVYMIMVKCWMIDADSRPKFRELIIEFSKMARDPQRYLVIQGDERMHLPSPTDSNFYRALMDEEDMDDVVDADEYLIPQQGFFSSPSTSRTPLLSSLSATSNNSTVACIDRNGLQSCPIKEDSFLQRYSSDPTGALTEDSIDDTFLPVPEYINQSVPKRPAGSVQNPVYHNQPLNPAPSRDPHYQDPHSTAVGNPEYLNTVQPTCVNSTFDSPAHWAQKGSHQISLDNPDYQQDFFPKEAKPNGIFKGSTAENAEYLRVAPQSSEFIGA
Test: mutEGFR (D770_N771insNPG, T790) kinase assay
Type: biochemical
Conditions: Table 2a, D770_N771insNPG
property name: IC50 (nM)
# output: bare number, implied unit nM

Below, 3 compounds whose answers are already recorded.
C=CC(=O)N1CCn2nc(-c3ccc4cc[nH]c4c3F)c(-c3ccncc3)c2C1 [Example 114] ... 0.218
C=CC(=O)N1CCn2nc(-c3ccc4sccc4c3)c(-c3ccncc3)c2C1 [Example 192] ... 0.0916
COc1ccc(-c2nn3c(c2-c2ccnc4[nH]cc(C)c24)CN(C(=O)/C=C/CN(C)C)CC3)cc1F [Example 59] ... 956

# evaluate next
Hello, please tell me recorded IC50 for this one: C=CC(=O)N1CCn2nc(-c3ccc(Cl)cc3F)c(-c3ccncc3)c2C1C (racemic) [Example 240]
1.5
